Assay: Cytotoxicity against human SH-SY5Y cells assessed as reduction in cell viability incubated for 24 hrs by MTT assay
Assay type: toxicity, cell-based
Kindly supply the reported IC50 at 24 h values for the records listed here.

QUERY: Sample O=c1cc(CO)occ1O [KOJIC ACID] — what was its IC50 at 24 h?
RESULT: > 500 µM

QUERY: Using the record for `O=c1cc(CO)oc(-c2oc(CO)cc(=O)c2O)c1O` , report its IC50 at 24 h.
RESULT: > 500 µM

----------
Experiment: Cytotoxicity against rat H9c2 cells assessed as reduction in cell viability incubated for 24 hrs by MTT assay
Assay type: toxicity, cell-based
READOUT TYPE: IC50 at 24 h

QUERY: Sample `O=c1cc(CO)occ1O` — what was its IC50 at 24 h?
RESULT: > 500 µM

QUERY: Suppose we examine the compound `O=c1cc(CO)oc(-c2oc(CO)cc(=O)c2O)c1O` ; what IC50 at 24 h value has been reported?
RESULT: > 500 µM
